method-notes: in vivo
details: BALB/c nude, mouse, in vivo, iv, total radioactivity, uptake Spleen
parameter-measured: tissue uptake at 24 h (%ID/g)
Numbers only, in %ID/g.

Exercise: Which tissue uptake at 24 h is reported for this compound? C[C@@H](O)[C@H](NC(=O)[C@@H]1CSSC[C@H](NC(=O)[C@@H](Cc2ccccc2)NC(=O)CNC(=O)COCCOCCNC(=O)[C@H](CCCCNC(=O)c2cccc(NC(=O)N[C@@H]3CN(C4CCCCC4)c4ccccc4N(CC(=O)C(C)(C)C)C3=O)c2)NC(=O)CN2CCN(CC(=O)O)CCN(CC(=O)O)CCN(CC(=O)O)CC2)C(=O)N[C@@H](Cc2ccc(O)cc2)C(=O)N[C@H](Cc2c[nH]c3ccccc23)C(=O)N[C@@H](CCCCN)C(=O)N[C@@H]([C@@H](C)O)C(=O)N1)C(=O)O [Compound I-53, DOTA-K(Z360)-OEG-G-f[CYwKTC]T-OH]
Solution: 0.31

###

method-notes: in vivo
details: BALB/c nude, mouse, in vivo, iv, total radioactivity, uptake Stomach
parameter-measured: tissue uptake at 24 h

Example compounds with recorded tissue uptake at 24 h:
Exercise: Which tissue uptake at 24 h is reported for this compound? C[C@@H](O)[C@H](NC(=O)[C@@H]1CSSC[C@H](NC(=O)[C@@H](Cc2ccccc2)NC(=O)COCCOCCNC(=O)[C@H](CCCCNC(=O)[C@H](CCC(=O)O)NC(=O)c2cccc(NC(=O)N[C@@H]3CN(C4CCCCC4)c4ccccc4N(CC(=O)C(C)(C)C)C3=O)c2)NC(=O)CN2CCN(CC(=O)O)CCN(CC(=O)O)CCN(CC(=O)O)CC2)C(=O)N[C@@H](Cc2ccc(O)cc2)C(=O)N[C@H](Cc2c[nH]c3ccccc23)C(=O)N[C@@H](CCCCN)C(=O)N[C@@H]([C@@H](C)O)C(=O)N1)C(=O)O [Compound I-27, DOTA-K(-E-Z360)-OEG-f[CYwKTC]T-OH]
Solution: 4.51 %ID/g

Exercise: And then C[C@@H](O)[C@H](NC(=O)[C@@H]1CSSC[C@H](NC(=O)[C@@H](Cc2ccccc2)NC(=O)CCCCCCCNC(=O)[C@H](CCCCNC(=O)c2cccc(NC(=O)N[C@@H]3CN(C4CCCCC4)c4ccccc4N(CC(=O)C(C)(C)C)C3=O)c2)NC(=O)CN2CCN(CC(=O)O)CCN(CC(=O)O)CCN(CC(=O)O)CC2)C(=O)N[C@@H](Cc2ccc(O)cc2)C(=O)N[C@H](Cc2c[nH]c3ccccc23)C(=O)N[C@@H](CCCCN)C(=O)N[C@@H]([C@@H](C)O)C(=O)N1)C(=O)O [Compound I-61, DOTA-K(Z360)-Aoc-f[CYwKTC]T-OH] , what is it?
Solution: 1.21 %ID/g

Proceeding to the next compound to report its tissue uptake at 24 h.
Exercise: Which tissue uptake at 24 h is reported for this compound? C[C@@H](O)[C@H](NC(=O)[C@@H]1CSSC[C@H](NC(=O)[C@@H](Cc2ccccc2)NC(=O)[C@H](CCCCNC(=O)c2cccc(NC(=O)N[C@@H]3CN(C4CCCCC4)c4ccccc4N(CC(=O)C(C)(C)C)C3=O)c2)NC(=O)CCOCCOCCOCCNC(=O)CN2CCN(CC(=O)O)CCN(CC(=O)O)CCN(CC(=O)O)CC2)C(=O)N[C@@H](Cc2ccc(O)cc2)C(=O)N[C@H](Cc2c[nH]c3ccccc23)C(=O)N[C@@H](CCCCN)C(=O)N[C@@H]([C@@H](C)O)C(=O)N1)C(=O)O [Compound I-48, DOTA-PEG3-K(Z360)-f[CYwKTC]T-OH]
Solution: 4.75 %ID/g

Taken from patent US20260248972A1.
